- TARGET_OR_SYSTEM: Adenosine receptor A1 (hamster)
- TEST_METHOD_NOTES: Binding affinity for adenosine A1 receptor determined using hamster DDT1 cell membranes with [3H]CCPA as radioligand
Reported Ki is given for each of the following molecules.
For clarity, give the value followed by its unit.

The cases that follow already have their Ki on record.
{"columns": ["MOLECULE", "Ki"],
 "data": [
  ["CCCCNC(=O)OC[C@H]1OC(n2cnc3c(NC4CCOC4)ncnc32)[C@H](O)[C@@H]1O (stereo partly drawn)", "1410 nM"],
  ["O[C@@H]1[C@@H](COC(=S)NCc2ccccc2)OC(n2cnc3c(NC4CCOC4)ncnc32)[C@@H]1O (stereo partly drawn)", "12 nM"]
]}

Next up:
Q: What value of measured Ki is listed for C=CCNC(=O)OC[C@H]1OC(n2cnc3c(NC4CCOC4)ncnc32)[C@H](O)[C@@H]1O (stereo partly drawn) ?
A: 524 nM

---

- TARGET_OR_SYSTEM: Adenosine receptor A1 (hamster)
- TEST_METHOD_NOTES: Binding affinity for adenosine A1 receptor determined using hamster DDT1 cell membranes with [3H]CCPA as radioligand
Reported pKi is given for each of the following compounds.
Remember, pKi is on a log scale: it is -log10 of the molar concentration.

The cases that follow already have their pKi on record.
{"columns": ["COMPOUND", "pKi"],
 "data": [
  ["CC(C)NC(=O)OC[C@H]1OC(n2cnc3c(NC4CCOC4)ncnc32)[C@H](O)[C@@H]1O (stereo partly specified)", 7.11],
  ["CCCCNC(=S)OC[C@H]1OC(n2cnc3c(NC4CCOC4)ncnc32)[C@H](O)[C@@H]1O (stereo partly specified)", 6.80]
]}

Q: What value of measured pKi is listed for CNC(=S)OC[C@H]1OC(n2cnc3c(NC4CCOC4)nc(Cl)nc32)[C@H](O)[C@@H]1O (stereo partly specified) ?
A: 7.15

Q: What would you report for O[C@@H]1[C@@H](COC(=S)NC2CC2)OC(n2cnc3c(NC4CCOC4)ncnc32)[C@@H]1O (stereo partly specified) ?
A: 6.80

Q: What would you report for CNC(=O)OC[C@H]1OC(n2cnc3c(NC4CCOC4)nc(Cl)nc32)[C@H](O)[C@@H]1O (stereo partly specified) ?
A: 7.02

Q: What would you report for O[C@@H]1[C@@H](COC(=S)NC2CCCC2)OC(n2cnc3c(NC4CCOC4)ncnc32)[C@@H]1O (stereo partly specified) ?
A: 7.14
